- experiment.notes: Thermodynamic aqueous solubility of the compound at pH 7.4 after 24 hrs by UV absorbance based assay
- Assay type: physicochemical
- experimental.parameters: read-out: Therm_solubility
readout.name: solubility thermodynamic at 24 h

Prompt line: Find the recorded solubility thermodynamic at 24 h belonging to `O=C(CCCCCCn1cc(-c2ncnc3[nH]ccc23)cn1)NO` and report it.
Response line: > 73 µg/mL

---

- subject.of.test: Histone deacetylase 1 (Homo sapiens, UniProt Q13547)
- Sequence (Q13547 whole entry, the tested form may be a part): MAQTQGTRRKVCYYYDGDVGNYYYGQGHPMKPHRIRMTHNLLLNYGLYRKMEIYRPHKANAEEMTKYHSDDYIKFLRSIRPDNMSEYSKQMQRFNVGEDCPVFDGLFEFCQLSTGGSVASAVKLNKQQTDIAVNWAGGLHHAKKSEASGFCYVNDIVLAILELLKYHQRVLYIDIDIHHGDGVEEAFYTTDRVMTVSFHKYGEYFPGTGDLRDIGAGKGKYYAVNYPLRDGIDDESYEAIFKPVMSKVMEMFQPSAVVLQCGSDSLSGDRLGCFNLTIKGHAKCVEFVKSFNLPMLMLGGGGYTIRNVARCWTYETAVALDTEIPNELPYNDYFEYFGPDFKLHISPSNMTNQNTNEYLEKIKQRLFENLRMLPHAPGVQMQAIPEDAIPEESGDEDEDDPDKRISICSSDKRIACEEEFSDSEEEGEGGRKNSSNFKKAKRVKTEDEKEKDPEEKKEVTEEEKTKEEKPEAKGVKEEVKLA
- experiment.notes: Inhibition of C-terminal FLAG His tagged full length human recombinant HDAC1 (1 to 482 residues) expressed in baculovirus infected sf21 cells using RHKKAc as substrate in presence of ATP
pIC50: −log10 of the molar value.
The label depends only on pIC50: yes (1) if it is at least 7, no (0) if it is smaller.

Prompt line: # check: pIC50 of `O=C(CCCCCCCCCCn1cc(-c2ncnc3[nH]ccc23)cn1)NO` is greater than or equal to 7
Response line: no (0)

Prompt line: Does the reported pIC50 for `O=C(CCCCn1cc(-c2ncnc3[nH]ccc23)cn1)NO` fall at or above the 7 mark?
Response line: no (0)

Prompt line: pIC50 >= 7 for `O=C(CCCCCCC(=O)Nc1ccc(CCCn2cc(-c3ncnc4[nH]ccc34)cn2)cc1)NO` ?
Response line: no (0)

Prompt line: # check: pIC50 of `O=C(CCCCCCCn1cc(-c2ncnc3[nH]ccc23)cn1)NO` is greater than or equal to 7
Response line: yes (1)

Prompt line: Please tell me: is the compound CC(CCCCCC(=O)NO)n1cc(-c2ncnc3[nH]ccc23)cn1 (configuration not stated) at or over 7 in terms of pIC50?
Response line: yes (1)

Each recorded value in this set is attributed to ChEMBL document CHEMBL4028864.
